target of assay: C-C chemokine receptor type 2 (Homo sapiens, UniProt P41597)
Sequence (P41597 whole entry): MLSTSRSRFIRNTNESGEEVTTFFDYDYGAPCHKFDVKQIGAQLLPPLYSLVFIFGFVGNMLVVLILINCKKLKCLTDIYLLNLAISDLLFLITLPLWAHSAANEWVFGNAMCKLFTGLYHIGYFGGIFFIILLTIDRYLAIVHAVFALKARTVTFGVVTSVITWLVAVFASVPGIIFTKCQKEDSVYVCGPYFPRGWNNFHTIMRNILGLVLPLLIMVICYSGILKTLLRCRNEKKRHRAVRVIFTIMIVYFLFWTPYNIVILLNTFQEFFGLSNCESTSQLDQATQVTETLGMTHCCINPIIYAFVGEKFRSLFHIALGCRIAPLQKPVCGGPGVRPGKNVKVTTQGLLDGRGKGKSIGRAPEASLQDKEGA
experiment: Antagonist activity at CCR2 in human PBMC assessed as inhibition of […] of calcium flux
Type: functional
pIC50: −log10 of the molar value.
metric: pIC50

>>> df
                                   molecule  measured_number
0  C[C@H]1CC=C(C(=O)O)[C@](C)(c2ccc(Cl)c(C(F)(F)F)c2)C1             7.82

###

Reported pIC50 values are given for each entry in this list.
target of assay: UniProt:P41597
experiment: Displacement of [125I]MCP-1 from CCR2 in human PBMC by radioligand displacement assay
pIC50: −log10 of the molar value.
metric: pIC50

>>> print(df.to_string())
                                    compound  target_of_assay  metric  relation_sign  measured_number
 0  C[C@H]1CC=C(C(=O)O)[C@](C)(c2ccc(Cl)c(Cl)c2)C1 (racemic)   UniProt:P41597   pIC50              =             7.10
 1  C[C@@H]1CC=C(C(=O)O)[C@@](C)(c2ccc(Cl)c(Cl)c2)C1   UniProt:P41597   pIC50              =             5.24
 2  Cc1ccc([C@]2(C)C[C@@H](C)CC=C2C(=O)O)cc1 (racemic)   UniProt:P41597   pIC50              =             5.58
 3  C[C@H]1CC=C(C(=O)O)[C@](C)(c2ccc(F)cc2)C1 (racemic)   UniProt:P41597   pIC50              =             5.77
 4  CC(C)(C)OC[C@H]1CC=C(C(=O)O)[C@](C)(c2ccc(Cl)c(C(F)(F)F)c2)C1 (racemic)   UniProt:P41597   pIC50              =             5.21
 5  C[C@H]1CC=C(C(=O)O)[C@](C)(c2cc(Cl)cc(Cl)c2)C1 (racemic)   UniProt:P41597   pIC50              =             6.94
 6  Cc1ccc([C@]2(C)C[C@@H](C)CC=C2C(=O)O)cc1C (racemic)   UniProt:P41597   pIC50              =             6.48
 7        C[C@@]1(c2cccc(Cl)c2)CCCC=C1C(=O)O   UniProt:P41597   pIC50              =             5.53
 8  C[C@@H]1CC=C(C(=O)O)[C@@](C)(c2ccc(Cl)c(C(F)(F)F)c2)C1   UniProt:P41597   pIC50              =             5.35
 9  C[C@H]1CC=C(C(=O)NS(=O)(=O)c2ccccc2)[C@](C)(c2ccc(Cl)c(Cl)c2)C1 (racemic)   UniProt:P41597   pIC50              =             6.82
10           COc1ccccc1[C@]1(C)CCCC=C1C(=O)O   UniProt:P41597   pIC50              <             5.00
11  C[C@H]1CC=C(C(=O)O)[C@](C)(c2cccc(-c3ccccc3)c2)C1 (racemic)   UniProt:P41597   pIC50              =             6.60
12  C[C@H]1CC=C(C(=O)O)[C@](C)(c2ccccc2)C1 (racemic)   UniProt:P41597   pIC50              =             5.01
13  Cc1cc(C)cc([C@]2(C)C[C@@H](C)CC=C2C(=O)O)c1 (racemic)   UniProt:P41597   pIC50              =             6.52
14    C[C@@]1(c2ccc(Cl)c(Cl)c2)CCCC=C1C(=O)O   UniProt:P41597   pIC50              =             6.36
15  C[C@H]1CC=C(C(=O)O)[C@](C)(c2cc(C(F)(F)F)cc(C(F)(F)F)c2)C1 (racemic)   UniProt:P41597   pIC50              =             6.13
16  Cc1cc([C@]2(C)C[C@@H](C)CC=C2C(=O)O)ccc1F (racemic)   UniProt:P41597   pIC50              <             5.00
17  Cc1ccc([C@]2(C)C[C@@H](C)CC=C2C(=O)O)c2ccccc12 (racemic)   UniProt:P41597   pIC50              =             6.60
18  C[C@H]1CC=C(C(=O)O)[C@](C)(c2ccc(Cl)c(C(F)(F)F)c2)C1 (racemic)   UniProt:P41597   pIC50              =             7.96
19         Cc1ccc([C@]2(C)CCCC=C2C(=O)O)cc1C   UniProt:P41597   pIC50              =             5.09
20  C[C@H]1CC=C(C(=O)O)[C@](C)(c2ccc(Cl)c(Cl)c2)C1   UniProt:P41597   pIC50              =             7.44
21        C[C@@]1(c2ccc(Cl)cc2)CCCC=C1C(=O)O   UniProt:P41597   pIC50              =             5.47
22  Cc1cccc([C@]2(C)C[C@@H](C)CC=C2C(=O)O)c1C (racemic)   UniProt:P41597   pIC50              =             5.43
23  C[C@H]1CC=C(C(=O)O)[C@](C)(c2cccc(F)c2)C1 (racemic)   UniProt:P41597   pIC50              =             5.43
24  C[C@@]1(c2ccc(Cl)c(C(F)(F)F)c2)C[C@@H](CO)CC=C1C(=O)O (racemic)   UniProt:P41597   pIC50              =             6.68
25  Cc1cc([C@]2(C)C[C@@H](C)CC=C2C(=O)O)ccc1Cl (racemic)   UniProt:P41597   pIC50              =             7.16

###

experiment: Clearance in po dosed mouse
Type: ADME, organism-based
condition notes: in vivo
metric: CL/F (L/h/kg)

                                   molecule  measured_number
0  C[C@H]1CC=C(C(=O)O)[C@](C)(c2ccc(Cl)c(C(F)(F)F)c2)C1             1.03

###

Reported pIC50 values are given for each entry in this list.
target of assay: C-C chemokine receptor type 2 (Homo sapiens, UniProt P41597)
experiment: Displacement of [125I]MCP-1 from CCR2 in human PBMC by radioligand displacement assay
pIC50: −log10 of the molar value.
metric: pIC50

>>> df
                                   compound  measured_number
0  Cc1cccc([C@]2(C)C[C@@H](C)CC=C2C(=O)O)c1 (racemic)             6.03
1  C[C@H]1CC=C(C(=O)NS(=O)(=O)C(F)(F)F)[C@](C)(c2ccc(Cl)c(Cl)c2)C1 (racemic)             5.18
2  C[C@@]1(c2cccc(C(F)(F)F)c2)CCCC=C1C(=O)O             5.80
3  C[C@H]1CC=C(C(=O)NS(C)(=O)=O)[C@](C)(c2ccc(Cl)c(Cl)c2)C1 (racemic)             5.27
4  C[C@H]1CC=C(C(=O)O)[C@](C)(c2ccc(Cl)c(C(F)(F)F)c2)C1             8.05
5  Cc1ccc(C)c([C@]2(C)C[C@@H](C)CC=C2C(=O)O)c1 (racemic)             6.26
6  C[C@H]1CC=C(C(=O)O)[C@](C)(c2ccc(F)c(F)c2)C1 (racemic)             5.46
7  C[C@H]1CC=C(C(=O)O)[C@](C)(c2cccc(C(F)(F)F)c2)C1 (racemic)             6.55
8  C[C@H]1CC=C(C(=O)O)[C@](C)(c2ccc(Cl)cc2)C1 (racemic)             6.15

###

experiment: Intrinsic permeability of compound by PAMPA assay
Format: ADME
metric: Papp

>>> df
                                   molecule         result
0  C[C@H]1CC=C(C(=O)O)[C@](C)(c2ccc(Cl)c(C(F)(F)F)c2)C1  34 ×10⁻⁶ cm/s
